- target-desc: thromboxane synthase (Homo sapiens, UniProt P24557)
- Construct: incubated with fresh whole human blood that had been anticoagulated with 0.38% trisodium citrate
- Sequence (P24557 1-533): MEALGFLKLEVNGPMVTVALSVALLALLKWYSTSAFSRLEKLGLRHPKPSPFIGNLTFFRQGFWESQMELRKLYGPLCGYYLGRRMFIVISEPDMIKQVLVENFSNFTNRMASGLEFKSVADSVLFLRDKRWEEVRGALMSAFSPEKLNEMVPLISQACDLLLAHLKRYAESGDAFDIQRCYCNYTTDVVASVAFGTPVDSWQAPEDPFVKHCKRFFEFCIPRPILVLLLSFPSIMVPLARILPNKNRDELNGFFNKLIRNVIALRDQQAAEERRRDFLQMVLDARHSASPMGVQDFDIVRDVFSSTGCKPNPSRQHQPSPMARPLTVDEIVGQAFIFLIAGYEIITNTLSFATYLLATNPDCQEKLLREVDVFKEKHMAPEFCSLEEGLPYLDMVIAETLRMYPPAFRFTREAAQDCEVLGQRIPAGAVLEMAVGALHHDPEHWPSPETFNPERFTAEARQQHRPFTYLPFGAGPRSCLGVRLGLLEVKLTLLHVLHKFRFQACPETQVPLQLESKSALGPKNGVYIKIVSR
- test-name: Thromboxane Synthase Inhibition (TSI) Assay: serum TXB2 by radioimmunoassay in whole human blood
- experimental-setup: serum TXB2, mean±SE, n=3, read-out: IC50 (concentration required to reduce thromboxane generation to 50% of vehicle)
readout-name: pIC50
Hey, just a heads up that pIC50 is the negative log base 10 of the concentration in molar.

stdin: Give the measured pIC50 of O=C(O)CCCCCn1ccc2ccncc21 [Example 1 Part D, 6-azaindole-1-hexanoic acid] .
stdout: 7.64
